Data provenance is patent US20090175881A1.

The following binders are shown together with reported Kd values.
# measuredOn: T1, FLAG-huIL-17A (human, UniProt Q16552 24-155)
# T1 construct: also called FLAG-huL-17A; FLAG-IL-17A
# T1 sequence: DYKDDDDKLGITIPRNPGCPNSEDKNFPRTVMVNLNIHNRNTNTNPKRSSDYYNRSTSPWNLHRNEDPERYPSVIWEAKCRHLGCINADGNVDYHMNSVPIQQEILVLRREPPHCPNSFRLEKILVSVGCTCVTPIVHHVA
# procedureDetails: KinExA, solution equilibrium
quantityName: Kd (pM)

binder	quantityName	readoutUnit	reading
rat 1D10 (antibody, V domains shown, Parental rat monoclonal antibody; also called ID10; anti-IL-17A antibody 1D10) VH: QVQLKESGPGLVQPSQTLSLTCTVSGFSLTNYYVHWVRQPPGKGLEWMGGVWNDGDTSYNSVLRSRLSITRDTSKSQVLLKMSSLQTEDTATYYCAREGREGFVGYYVMDAWGPGASVTVSS VL: DIQMTQSPSFLSASVGERVTLSCKASQNINKYLDWFQQKLGEAPKLLIYNADNLHTGIPSRFSGSGSFSDFILTISSLQPEDDATYFCLQRESWPYTFGAGTKLELKR	Kd	pM	1.7
rat 30C10 (antibody, V domains shown, Parental rat monoclonal antibody (hybridoma PTA-7739); also called 30C10C) VH: EVQLVESGGGLVQPGRSQKLSCVVSGFTFNNYWMTWIRQAPGKGLEWVASVSNTGSSTYYPASVKGRFTISRDNAKSTLYLQMNSLRSEDTATYYCTREGAYYLDYWGQGVMVTVSS VL: DIVMTQSPSSLAVSPGETVTINCKSSQSLFWSESHMNYLAWYQQKPGQSPKLLIYYASTRQSGVPDRFIGSGSGTDFTLTISGVQAEDLAVYYCHHHYDSHTFGAGTKLELKR	Kd	pM	11
rat 23E12 (antibody, V domains shown, Parental rat monoclonal antibody (hybridoma PTA-7740)) VH: QVQLKESGPGLVQPSQTLSLTCTVFGFSLTNNGVTWVRQPPGKGLEWIAEVSSGGSTDYNSALKSRLSISRDTSKSQVFLRMNSLQTEDTAIYFCARQEVFTGLLDYWGQGVMVTVSS VL: DIQMTQSPASLSASLGETVTIQCQASEDIYSGLAWYHQKPGKSPQLLILGASRLHDGVPSRFSGSGSGIEYSLKINNMQTEDEGIYFCQQGLKYPPTFGGGTKLELKR	Kd	pM	2.8
rat 16C10 (antibody, rat IgG1, V domains shown, also called 16C10C; antibody 16C10) VH: QVELRESGPGLVQPSQTLSLTCTVSGFSLPSHSVSWIRQPPGKGLEWMGIIWNNGGTDYNSAFKSRLTISRDTSKSQVFLKMNSLQTEDTAMYFCARNMYITDYYYENYFMDAWGQGASVTVSS VL: DIVMTQSPSSLAVSIGETVTLNCKSSQSLLFSENQKNYLAWYQHKSGQSPKLLVYWTSTRQSGVPDRFMGSGSGTDFTLTISSVQAEDLAIYYCQQSYYTPYTFGAGTKLELKR	Kd	pM	3.6
